Reported half-life is given for each of the following molecules.
test: Pharmacokinetic (PK) study, plasma by LC-MS; format: in vivo, Rat; settings: plasma; Rat Male, po @ 80 mg/kg (30% PEG400, 10% Vitamin E TPGS in water)

                                   molecule   property  measured_result
0  CC(C)OC(=O)Nc1ccc(-c2cnc([C@H]3CC[C@H](NC(=O)OC(C)C)CC3)s2)c(S(=O)(=O)NC(C)(C)C)c1 [Ex. 67A]  half-life           6.46 h
1  CC(C)OC(=O)N[C@H]1CC[C@H](c2ncc(-c3ccc(NC(=O)NCc4ncccc4F)cc3S(=O)(=O)NC(C)(C)C)s2)CC1  half-life           3.79 h

Here is the next item to consider.
Task: Query half-life for CC(C)OC(=O)N[C@H]1CC[C@H](c2ncc(-c3ccc(NC(=O)NCc4ccccn4)cc3S(=O)(=O)NC(C)(C)C)s2)CC1
Result: 3.97 h

###

assay: Bi-directional Caco-2 permeability; format: in vitro ADME; settings: human; Caco-2, basolateral to apical, 37 C, up to 90 minutes; read-out: BA Papp (cm/sec × 10^6)
Reported Papp B→A at 90 min is given for each of the following compounds.
Please state the figure in ×10⁻⁶ cm/s; there is no need to write the unit.

These solved cases illustrate the format of a correct answer.
In [3]: df
Out[3]:
                                   compound  measured_result
0  CC(C)OC(=O)Nc1ccc(-c2cnc([C@@H]3CC[C@@H](NC(=O)OC(C)C)CO3)s2)c(S(=O)(=O)NC(C)(C)C)c1 [Ex. 60A]             11.2
1  CC(C)OC(=O)N[C@H]1CC[C@H](c2ncc(-c3ccc(NC(=O)NCc4cccc(F)c4)cc3S(=O)(=O)NC(C)(C)C)s2)CC1              0.5
2  CC(C)OC(=O)N[C@H]1CC[C@H](c2ncc(-c3ccc(NC(=O)OC[C@@H]4CCCN4C)cc3S(=O)(=O)NC(C)(C)C)s2)CC1               41
3  CC(C)OC(=O)Nc1ccc(-c2cnc(C34CCC(NC(=O)OC(C)C)(CC3)CC4)s2)c(S(=O)(=O)NC(C)(C)C)c1              2.1
4  CC(C)OC(=O)Nc1ccc(-c2sc(C3CCC(NC(=O)OC(C)C)CC3)nc2F)c(S(=O)(=O)NC(C)(C)C)c1 (stereo not drawn)              3.4
5  CC(C)OC(=O)N[C@H]1CC[C@H](c2ncc(-c3ccc(NC(=O)NCc4ncccc4F)cc3S(=O)(=O)NC(C)(C)C)s2)CC1             13.6
6  CC(C)OC(=O)Nc1ccc(-c2cnc([C@H]3CC[C@H](NC(=O)OC4CCCC4)CC3)s2)c(S(=O)(=O)NC(C)(C)C)c1              2.1
7  CC(C)OC(=O)Nc1ccc(-c2cnc([C@@H]3CC[C@@H](NC(=O)OC(C)C)CN3)s2)c(S(=O)(=O)NC(C)(C)C)c1 (relative stereo)             26.7

Here is the next item to consider.
Task: Query Papp B→A at 90 min for CC(C)NC(=O)O[C@H]1CC[C@H](c2ncc(-c3ccc(NC(=O)OC(C)C)cc3S(=O)(=O)NC(C)(C)C)s2)CC1
Result: 10.4
